The reported measurements were obtained from ChEMBL document CHEMBL3272048.

PROCEDURE SUMMARY: Uncoupling of electron transport protein complex in alkyl pyridine carbonyldithiocarbazates-stimulated rat liver mitochondria assessed as concentration required to 100% uncoupling
Property: Activity; scope: individual compounds
Just the number please, in µM, no unit attached.

(Q) So what does the record say about Activity for CCCCCCCSC(=S)NNC(=O)c1cccnc1 ?
(A) 14

(Q) Also, CCCCCSC(=S)NNC(=O)c1ccncc1 please.
(A) 17.5

(Q) Also, CCCCCSC(=S)NNC(=O)c1ccccn1 please.
(A) 90

* * *

PROCEDURE SUMMARY: Uncoupling of electron transport protein complex in alkyl pyridine carbonyldithiocarbazates-stimulated rat liver mitochondria assessed as concentration required to 100% uncoupling
QUANTITY NAME: log10 of Activity (log10 of the value in µM)
For clarity, the numbers are log10 values of Activity expressed in µM.

Some solved entries appear below for comparison.
structure_string=CCCSC(=S)NNC(=O)c1cccnc1 data_value=2.57
structure_string=CSC(=S)NNC(=O)c1cccnc1 data_value=3.33
structure_string=CSC(=S)NNC(=O)c1ccccn1 data_value=3.27
structure_string=CCCCCCCCSC(=S)NNC(=O)c1ccncc1 data_value=-0.08
structure_string=CCCCCCCCCSC(=S)NNC(=O)c1ccncc1 data_value=-0.07

(Q) So what does the record say about log10 of Activity for CCCCSC(=S)NNC(=O)c1cccnc1 ?
(A) 2.56

(Q) Also, CCCCCCCSC(=S)NNC(=O)c1ccncc1 please.
(A) 0.29

(Q) Also, CCCCCCSC(=S)NN please.
(A) 2.54

(Q) Also, CCCCCSC(=S)NNC(=O)c1cccnc1 please.
(A) 2.02

(Q) Also, CCSC(=S)NNC(=O)c1ccncc1 please.
(A) 3.08

(Q) Also, CCCSC(=S)NNC(=O)c1ccncc1 please.
(A) 2.04

(Q) Also, CCCCCCCCSC(=S)NNC(=O)c1ccccn1 please.
(A) 0.57

* * *

PROCEDURE SUMMARY: Uncoupling of electron transport protein complex in alkyl pyridine carbonyldithiocarbazates-stimulated rat liver mitochondria assessed as concentration required to 100% uncoupling
QUANTITY NAME: log10(Activity) (log10 of the value in µM)
For clarity, the numbers are log10 values of Activity expressed in µM.

Some solved entries appear below for comparison.
structure_string=CCCCSC(=S)NNC(=O)c1ccncc1 quantity_name=log10(Activity) data_value=1.80
structure_string=CCCCCCCCCSC(=S)NNC(=O)c1cccnc1 quantity_name=log10(Activity) data_value=0.04
structure_string=CCCCSC(=S)NNC(=O)c1ccccn1 quantity_name=log10(Activity) data_value=2.38
structure_string=CCCCCCCSC(=S)NN quantity_name=log10(Activity) data_value=2.15
structure_string=CCCCCCCSC(=S)NNC(=O)c1ccccn1 quantity_name=log10(Activity) data_value=0.67
structure_string=CCCCCCSC(=S)NNC(=O)c1cccnc1 quantity_name=log10(Activity) data_value=1.95
structure_string=CCCCCCCCSC(=S)NNC(=O)c1cccnc1 quantity_name=log10(Activity) data_value=0.11
structure_string=CSC(=S)NNC(=O)c1ccncc1 quantity_name=log10(Activity) data_value=3.28

(Q) So what does the record say about log10(Activity) for CCCSC(=S)NNC(=O)c1ccccn1 ?
(A) 2.46

(Q) Also, CCCCCSC(=S)NN please.
(A) 2.95

(Q) Also, CCSC(=S)NNC(=O)c1ccccn1 please.
(A) 3.11

(Q) Also, CCSC(=S)NNC(=O)c1cccnc1 please.
(A) 3.00

* * *

PROCEDURE SUMMARY: Uncoupling of electron transport protein complex in alkyl pyridine carbonyldithiocarbazates-stimulated rat liver mitochondria assessed as concentration required to 100% uncoupling
Property: Activity; scope: individual compounds
Just the number please, in µM, no unit attached.

Some solved entries appear below for comparison.
structure_string=CCCCCCCCCS/C(S)=N/NC(=O)c1ccccn1 unit_tag=µM data_value=2.9
structure_string=CCCCCCSC(=S)NNC(=O)c1ccncc1 unit_tag=µM data_value=6.58

Now examine the next entry.
(Q) So what does the record say about Activity for CCCCCCSC(=S)NNC(=O)c1ccccn1 ?
(A) 50
